For each of the molecules below, state its viability at 10 µM.
# Tested on: AGS
# Protocol details: Antiproliferative activity against human AGS cells assessed as survival at 10 uM by sulforhodamine B assay
# Format: functional
# Condition parameters: read-out: Activity
Give bare numbers, in %.

Known viability at 10 µM results, listed for orientation:
Molecule	Recorded result
Cc1cc2c(Nc3ccc4nc(N)sc4c3)c(C#N)cnc2cc1OCCN1CCCCC1	61
COc1cc(Nc2c(C#N)cnc3cc(OCCCN4CCN(C)CC4)c(OC)cc23)c(Cl)cc1Cl	3.8
Cc1cc2c(Nc3ccc4nc(N)sc4c3)c(C#N)cnc2cc1OCCCN1CCN(C)CC1	68.1

Field: next molecule
Prompt line: What viability at 10 µM value was documented for this molecule, Cc1cc2c(Nc3ccc4nc(N)sc4c3)c(C#N)cnc2cc1OCCCN1CC(C)CC(C)C1 (centres undefined) ?
Response line: 65.5

These measurements were taken from ChEMBL document CHEMBL1152265.
